# Tested on: HOP-92 NSCLC
# ASSAY_OVERVIEW: NCI-60 one-dose screen, 48 h
# RUN_PARAMETERS: 10 µM unless noted
The panel holds about 83,000 compounds, 20% with a hit somewhere; the sample as a whole holds those more often. Activity calls are given as the source filed them. The calls were made as follows: active = growth percent below 10; inactive = the rest.
Would you mind answering with one of these outcomes? True for active, False for inactive

Enquiry: For this molecule, state the assay outcome: Brc1ccc(SCN(CSc2ccc(Br)cc2)Cc2ccccc2)cc1
Return: False

Enquiry: For this molecule, state the assay outcome: COc1ccc(C(=O)C2=CC(=O)C(=O)C2)cc1OC
Return: False

Enquiry: For this molecule, state the assay outcome: CCC(C)[C@H]1O[C@]2(CC[C@@H]1C)C[C@@H]1C[C@@H](C/C=C(\C)[C@@H](OC3C[C@H](OC)C(O[C@H]4C[C@H](OC)[C@@H](O)[C@H](C)O4)[C@H](C)O3)[C@@H](C)/C=C/C=C3\CO[C@@H]4[C@H](O)C(C)=C[C@@H](C(=O)O1)[C@]34O)O2 (stereo not given in full)
Return: True

Enquiry: For this molecule, state the assay outcome: O=c1c2c(=NCCN3CCCC3)cc3c(=O)n(CCCN4CCOCC4)c(=O)c4c(-c5ccc(CN6CCCC6)cc5)cc(c(O)n1CCCN1CCOCC1)c2c4-3
Return: True

Enquiry: For this molecule, state the assay outcome: O=C(NCc1ccc(F)cc1)C1CN(c2ccc(Cl)cc2)N(c2ccc(Cl)cc2)C1=O (stereo not given)
Return: False

Enquiry: For this molecule, state the assay outcome: COc1cccc(C2C3=C(COC3=O)N(CCO)c3cc4c(cc32)CCC4)c1 (stereo not given)
Return: False

Enquiry: For this molecule, state the assay outcome: CC1(C)N=C(N)N=C(N)N1c1cccc(OCCOc2cccc([N+](=O)[O-])c2)c1
Return: False

Enquiry: For this molecule, state the assay outcome: CN1CCc2c(Sc3ccc(C(=O)NO)cc3)c3ccccc3n2C1
Return: False

Enquiry: For this molecule, state the assay outcome: CCN(CC)CCCNc1ccc(C)c2sc3ccccc3c(=O)c12
Return: False

Enquiry: For this molecule, state the assay outcome: O=[N+]([O-])c1ccc2nc(N/N=C/c3ccc(O)cc3)sc2c1
Return: False

Enquiry: For this molecule, state the assay outcome: COc1ccc(/C=N\N2CCOCC2)cc1OC1CCCC1
Return: False

Enquiry: For this molecule, state the assay outcome: Cc1ccc(N=c2nc3sc4c(C)ccc(C)c4n3c(N)c2C#N)cc1
Return: False

Enquiry: For this molecule, state the assay outcome: O=c1oc2ccccc2cc1-c1csc(N=Nc2c(O)[nH]c3ccc(Br)cc23)n1
Return: False

Enquiry: For this molecule, state the assay outcome: COc1cccc(OC)c1OC(=O)c1ccccc1
Return: False

Enquiry: For this molecule, state the assay outcome: COc1ccc(/C=N/NC(=O)c2cnn3c2NC(c2ccccc2)C3)cc1OC1CCCC1 (stereo not given)
Return: False

Enquiry: For this molecule, state the assay outcome: Cc1nc2cc(Nc3nc(N4CCCCC4)nc(N4CCOCC4)n3)ccc2n1Cc1ccccc1
Return: True

Enquiry: For this molecule, state the assay outcome: CCN(CC)c1ccc(/C=C(\C#N)c2cc3ccccc3[nH]2)cc1
Return: False

Enquiry: For this molecule, state the assay outcome: Nc1cc2[nH]c(=O)c3ccccc3c2cc1Br
Return: False

Enquiry: For this molecule, state the assay outcome: O=c1c2c(=NCCN3CCCC3)cc3c(=O)n(CCCN4CCOCC4)c(=O)c4ccc(c(O)n1CCCN1CCOCC1)c2c4-3
Return: True

Enquiry: For this molecule, state the assay outcome: CCCCCCCCCCCC(=O)[O][Sn]([CH2]CCC)([CH2]CCC)[CH2]CCC
Return: True

Enquiry: For this molecule, state the assay outcome: CCOC(=O)c1cn2c3c(cc(F)cc3c1=O)C(CC)c1ccccc1C2 (stereo not given)
Return: False

Enquiry: For this molecule, state the assay outcome: O=C1/C(=C/c2ccc(F)cc2)CN(Cc2cn(CCNc3ccnc4cc(Cl)ccc34)nn2)C/C1=C\c1ccc(F)cc1
Return: True

Enquiry: For this molecule, state the assay outcome: COc1ccc2nc(-n3nc(C)cc3C)c(-n3nc(C)cc3C)nc2c1
Return: False

Enquiry: For this molecule, state the assay outcome: O=C1Nc2ccc(Cl)cc2/C1=N/N=C(c1ccccc1)c1ccccc1
Return: False

Enquiry: For this molecule, state the assay outcome: Cc1nc2cc(Nc3nc(NCCN)nc(Nc4ccc(F)cc4)n3)ccc2n1Cc1ccccc1
Return: False

Enquiry: For this molecule, state the assay outcome: OB(O)c1ccccc1
Return: False

Enquiry: For this molecule, state the assay outcome: CCCC1=NNC(=O)C1
Return: False

Enquiry: For this molecule, state the assay outcome: O=C1/C(=C/c2ccc([N+](=O)[O-])cc2)Oc2ccc(O)cc21
Return: False

Enquiry: For this molecule, state the assay outcome: O=c1[nH]c(-c2ccncc2)nc2sc3c(c12)CCCCCC3
Return: True

Enquiry: For this molecule, state the assay outcome: COc1ccc(-c2nc3sccn3c2/C=C/C(=O)c2cc(OC)c(OC)c(OC)c2)cc1OC
Return: True

Enquiry: For this molecule, state the assay outcome: COc1ccc(/C=N/OCC(O)CN2CCC(O)CC2)cc1OC1CCCC1 (stereo not given)
Return: False

Enquiry: For this molecule, state the assay outcome: CCC(=O)Nc1nnc(Cc2ccc(OC)c(OC)c2)s1
Return: False

Enquiry: For this molecule, state the assay outcome: Cc1c(C(=O)Nc2nc(-c3ccccc3)cs2)nnn1-c1ccccc1Br
Return: False

Enquiry: For this molecule, state the assay outcome: COc1ccc(OC)c(/C=C2\Oc3cc(O)ccc3C2=O)c1
Return: False

Enquiry: For this molecule, state the assay outcome: O=C(c1cnn2c1NC(c1ccc(F)cc1)C2)N1CCCCC1 (stereo not given)
Return: False

Enquiry: For this molecule, state the assay outcome: Cc1nc(NC(=O)COc2cccc(/C=C3\COc4ccccc4C3=O)c2)sc1C
Return: True

Enquiry: For this molecule, state the assay outcome: COc1ccc(C(=O)COc2cccc(/C=C3\CSc4ccc(C)cc4C3=O)c2)cc1
Return: False

Enquiry: For this molecule, state the assay outcome: CC(C)(C)[Si](C)(C)OC1[C@@H](CNC(=O)NC(=O)CCl)O[C@@H](n2cnc3c(N)ncnc32)[C@H]1O[Si](C)(C)C(C)(C)C (stereo not given in full)
Return: True

Enquiry: For this molecule, state the assay outcome: COc1ccccc1-n1c(SCc2cc(OC)c(OC)c(OC)c2)nc2ccc(Cl)cc2c1=O
Return: False

Enquiry: For this molecule, state the assay outcome: COc1cc(OCc2cccc(-c3ccc(C(O)c4nccs4)cc3)c2C)cc(OC)c1C=O (stereo not given)
Return: False

---

# System: HT29 colon
# ASSAY_OVERVIEW: NCI-60 one-dose screen, 48 h
# RUN_PARAMETERS: 10 µM unless noted
This is part of a sample that, as a whole, favours compounds with a hit. Of some 83,000 tested, about 20% had one in any assay. Activity calls are given as the source filed them. Rule for the calls: active = growth percent below 10; inactive = the rest.
Would you mind answering with one of these outcomes? active, inactive

Enquiry: For this compound, state the assay outcome: c1ccc2c(c1)oc1cc3c(cc12)nnc1cccn13
Return: inactive

Enquiry: For this compound, state the assay outcome: Cc1ccccc1-n1nnc(C(=O)Nc2nc(-c3ccccc3)c(-c3ccccc3)s2)c1C
Return: inactive

Enquiry: For this compound, state the assay outcome: NC1=NC(c2ccccc2OS(=O)(=O)c2ccc(Br)cc2)n2c(nc3ccccc32)N1 (stereo unspecified)
Return: inactive

Enquiry: For this compound, state the assay outcome: Nc1nc(N)c(N=Nc2c(Br)cc(S(N)(=O)=O)cc2Br)c(N)n1
Return: inactive

Enquiry: For this compound, state the assay outcome: O=C(c1cnn2c1NC(c1ccc(F)cc1)C2)N1CCCCC1 (stereo unspecified)
Return: inactive

Enquiry: For this compound, state the assay outcome: Cc1oc2c(c1C(=O)N1CC[C@@H](N)C1)C(=O)c1c(c(O)c3ccccc3c1O)C2=O
Return: inactive

Enquiry: For this compound, state the assay outcome: Fc1ccccc1Nc1ccc2nnc(-c3ccncc3)n2n1
Return: inactive

Enquiry: For this compound, state the assay outcome: CC1CCCCN1S(=O)(=O)c1ccc(CN=C=S)cc1 (stereo unspecified)
Return: inactive

Enquiry: For this compound, state the assay outcome: COc1cc2nc(N3CCC[C@H](NC4=CC(=O)c5ccccc5C4=O)C3)nc(N)c2cc1OC
Return: active

Enquiry: For this compound, state the assay outcome: Cc1ccc(-c2c3c(N)c4c(nc3nc3c2c(C)nn3-c2ccccc2)CCCC4)cc1
Return: inactive

Enquiry: For this compound, state the assay outcome: CCCOC(=O)c1ccc2c(c1)[N+](=O)C(C(=O)c1ccccc1)=C(C(F)(F)F)[N+]2=O
Return: active

Enquiry: For this compound, state the assay outcome: COc1ccc(-c2nc3sc(C)cn3c2/C=C/C(=O)c2cc(OC)c(OC)c(OC)c2)cc1
Return: inactive

Enquiry: For this compound, state the assay outcome: COc1ccc(Sc2ccc3[nH]c(=O)nc(N)c3c2)cc1
Return: inactive

Enquiry: For this compound, state the assay outcome: N#Cc1c(-c2cccc(F)c2)cc(-c2ccc(Br)s2)[nH]c1=O
Return: inactive

Enquiry: For this compound, state the assay outcome: COc1cc(-c2ccc3cc(OC)c(OC)c(OC)c3c2)cc(OC)c1OC
Return: inactive

Enquiry: For this compound, state the assay outcome: CC1(C)CC(=O)C2=C(C1)Nc1cc3c(cc1C2c1ccc(F)cc1)OCO3 (stereo unspecified)
Return: inactive

Enquiry: For this compound, state the assay outcome: Clc1ccc2c(N3CCN(c4ccnc(NC5CCCCC5)n4)CC3)ccnc2c1
Return: active

Enquiry: For this compound, state the assay outcome: CN1CCc2c(c3ccccc3c3ccccc23)C1
Return: inactive

Enquiry: For this compound, state the assay outcome: O=C(N/N=C/c1ccc2c(c1)OCO2)c1cnn2c1NC(c1ccccc1)C2 (stereo unspecified)
Return: inactive

Enquiry: For this compound, state the assay outcome: CCOc1ccc(-c2cnnn2-c2nonc2-n2cccc2)cc1
Return: active

Enquiry: For this compound, state the assay outcome: CCOC(=O)C1=C(C)N2C(=NC3=C(CCCC/C3=C\c3cc(OC)c(OC)c(OC)c3)C2c2cc(OC)c(OC)c(OC)c2)S1 (stereo unspecified)
Return: inactive
